species: Rattus norvegicus; test: Open TG-GATES - Regimen: Daily Repeat; assay type: toxicity, organism-based, Sprague-Dawley; set-up: regimen Daily Repeat, gender Male, age 6 weeks; settings: in vivo, po, 0 mg/kg, […], tissue Blood, route gavage, dose level Control, time 7 day
Hi there, I'd appreciate the recorded Neu for every entry that follows.
API: value field is a number in %; no unit string.

Reported Neu ( O=P1(N(CCCl)CCCl)NCCCO1 (stereo not given) [CYCLOPHOSPHAMIDE ANHYDROUS] ) = 16.2

Reported Neu ( Cn1cnc([N+](=O)[O-])c1Sc1ncnc2nc[nH]c12 ) = 18.2

Reported Neu ( Cc1cnc(NC(=O)C2=C(O)c3ccccc3S(=O)(=O)N2C)s1 ) = 16.6

Reported Neu ( CS(=O)(=O)Nc1ccc([N+](=O)[O-])cc1Oc1ccccc1 [NIMESULIDE] ) = 12.6

Reported Neu ( Cn1c(=O)c2c(ncn2C)n(C)c1=O ) = 17.4

Reported Neu ( COc1ccc(Cl)cc1C(=O)NCCc1ccc(S(=O)(=O)NC(=O)NC2CCCCC2)cc1 [GLYBURIDE] ) = 16.2

Reported Neu ( COc1ccc(O)c(C(C)(C)C)c1.COc1ccc(O)cc1C(C)(C)C [BUTYLATED HYDROXYANISOLE] ) = 19.2

Reported Neu ( O=C1NC(=O)C(c2ccccc2)(c2ccccc2)N1 ) = 13.6

Reported Neu ( C=CCO ) = 16.2

Reported Neu ( Cc1cccc(Nc2cc(Cl)nc(SCC(=O)O)n2)c1C ) = 13.8
